Measurement Type: melting point

(Q) Which melting point reading was recorded for the compound Cc1cc(C)n(-c2nc(Nc3ccc4ccccc4c3)c3ccccc3n2)n1 ?
(A) 213 to 216 °C

(Q) Give its melting point value. Item: CNC(=O)N(O)Cc1cccc(Nc2ccccc2C(=O)OC)c1Cl
(A) 143 to 145 °C

(Q) Report melting point for Cc1cccc(Nc2ncnc3cnc(NC4CCN(C#N)CC4)nc23)c1 please.
(A) 178 to 181 °C

###

Measurement Type: melting point

{"Molecule": "CCOC(=O)CC1C(=O)N(CC(C)(C)C)c2ccc(Cl)cc2N(c2ccccc2Cl)C1=O (stereo not drawn)", "Measurement Type": "melting point", "Observed Result": "152 to 153 °C"}
{"Molecule": "COC(=O)C1=C(C)NC(C)=C(C(=O)OCCCOc2ccc(CCOC3CCCCO3)cc2)C1c1cccc([N+](=O)[O-])c1 (stereo not drawn)", "Measurement Type": "melting point", "Observed Result": "< 50 °C"}

// switching to the query molecule
(Q) Please look up its melting point: Nc1c([N+](=O)[O-])sc2c(Cl)cc(Cl)cc12
(A) 290 to 292 °C
